# Protocol summary: small-molecule binders of probe aLefty1, primary screen, biochemical, small-molecule microarray, 635/667 nm fluorescence (AID 1153);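 note: score merges spot fluorescence with signal-to-noise ratio from the scanned slide images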
# Condition set: higher = more signal
Experimental endpoint: composite z-score

| Compound | Result |
| --- | --- |
| O=C(CS)NCCCCCNC(=O)[C@@H]1C[C@@H]2C(=O)N[C@@H](Cc3ccccc3)C(=O)N2[C@@H]1c1cccc(OCCO)c1 | -1.01 |

# input What composite z-score value was documented for this compound, `C=C(CCCC)C(=O)CC[C@H](OC(C)=O)c1ccc(OCCO)cc1` ?
# output -0.316

# input Repeat for the following compound: `C=C(/C(=C/C[C@@H](OC(C)=O)c1ccc(CO)o1)c1cc(C(=O)OC)ccc1OC)C(C)C`
# output -0.0536

# input Repeat for the following compound: `COCCOC(=O)N1C(=O)[C@@]2(c3cc(C#CCCO)ccc31)[C@H](c1ccccc1OCCO)N1[C@H](c3ccccc3)[C@H](c3ccccc3)OC(=O)[C@H]1[C@@H]2C(=O)N1CCCCCCC1`
# output 2.58

# input Repeat for the following compound: CC(C)CCC[C@@H](C)[C@H]1CC[C@@]2(C)C3=C(CC[C@]12C)[C@@]1(C)CC[C@H](OC(=O)c2ccccc2)C(C)(C)C1CC3 (stereo partly specified)
# output 0.0939

====

# Protocol summary: small-molecule microarray binders of probe aNog, primary screen, biochemical, biotinylated probe, 635/667 nm fluorescence (AID 1115);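 note: probe is biotinylated aNog protein used at 0.15 µg/mL for 1 h at 4 C; z-score combines 667 nm fluorescence of each spot with its signal to noise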
# Condition set: higher = more signal
Experimental endpoint: composite z-score
// return a plain number; no unit text

Known results for compounds:
| Compound | composite z-score |
| --- | --- |
| COC(=O)[C@@]1(Cc2ccccc2)[C@H]2c3cc(C(=O)N(C)C)n(CCn4cc([N+](=O)[O-])nc4C)c3C[C@H]2CN1C(=O)c1ccccc1 | 0.576 |
| CS(=O)(=O)CCOC(=O)C1=CC(CCCO)=CC(C2CC2)N(Cc2cccc(OC(F)(F)F)c2)C=C1C(=O)OCCS(C)(=O)=O (stereo not given) | 0.576 |
| CCOC(=O)C1=CC[C@@H](c2ccccc2)N(S(=O)(=O)c2ccc(C)cc2)[C@H]1C=Cc1ccccc1 | -0.5 |
| C=CCNC(=O)[C@H]1[C@@H]2C(=O)O[C@@H](c3ccccc3)[C@@H](c3ccccc3)N2[C@@H](c2ccc(OCCO)cc2)[C@]12C(=O)N(C(=O)OCCOC)c1ccc(C#Cc3ccc(OC)cc3)cc12 | 0.447 |
| COc1ccc(C(=O)Nc2cccc(CN3C(=O)[C@]4(O[C@H](CCn5cc([C@H](O)c6ccccc6)nn5)[C@@H]([Si](C)(C)c5ccc(OC)cc5)[C@@H]4C)c4ccccc43)c2)cc1 | 0.189 |
| [N-]=[N+]=NCc1ccccc1[C@@H]1OC(c2ccc(OCCCO)cc2)=N[C@]1(Cc1ccccc1N=[N+]=[N-])C(=O)NCCN1CCOCC1 | 0.597 |
| CN1C(=O)C2C=CC(C(O)c3ccc(F)cc3)N(NC(=O)OC(C)(C)C)C2C1=O (stereo not given) | 1.12 |
| C=CCOC(=O)[C@H]1[C@@H]2C(=O)O[C@@H](c3ccccc3)[C@@H](c3ccccc3)N2[C@@H](c2ccc(OCCOC(=O)[C@H]3C[C@H]4C(=O)N[C@@H](CCCCNC(C)=O)C(=O)N4[C@H]3c3cccc(OCCO)c3)cc2)[C@]12C(=O)Nc1ccc(I)cc12 | -0.632 |

# input What composite z-score value was documented for this compound, `O=C1N[C@@H](Cc2ccccc2)C(=O)N2[C@@H]1C[C@@H](C(=O)O)[C@H]2c1ccc(O)cc1` ?
# output -0.0382

# input Repeat for the following compound: CCOC(=O)C1=CCN(S(=O)(=O)c2ccc(C)cc2)C1c1ccccc1 (stereo not given)
# output 0.46

# input Repeat for the following compound: `CCCC=C(CCC)[C@@H](NS(=O)(=O)c1cccc2cccnc12)c1ccc(-c2ccccc2)cc1`
# output -0.779
